target: HIV-1 nucleocapsid protein (NC) (HIV-1 NL4-3, UniProt P12493); test: ITC; exothermic sites, n=6.6±0.2 per dimer; ITC: 10 mM Tris-HCl pH 7.0, 140 mM KCl, 10 mM NaCl, 5 mM MgCl2, 5 mM TCEP, 30 °C; NC (120-240 µM) titrated into RNA (0.6-4 µM); conditions: protein: recombinant; tags: none stated; duplex dimer of 2 strands
PROPERTY_MEASURED: Kd (nM)
Write it as a number; the unit nM goes unstated.

If you can, please state the reported Kd value of GGCAGGACUCGGCUUGCUGAAGCGCGCACGGCAAGAGGCGAGGGGCC (structured_RNA) [DIS] .
340

src = paper PMC7395439
